tested.system: T1, human 14-3-3γ, wild-type (human, UniProt P61981 2-247)
T1 construct: 14-3-3 protein gamma, human; d14-3-3γ is the same protein after extensive dialysis into phosphate-free 10 mM Na-Hepes, pH 7.4; also called wt-14-3-3γ; d14-3-3γ; source: E. coli (BL-21, codon+), GST fusion purified on glutathione-Sepharose 4B, cleaved by thrombin, further purified
T1 sequence: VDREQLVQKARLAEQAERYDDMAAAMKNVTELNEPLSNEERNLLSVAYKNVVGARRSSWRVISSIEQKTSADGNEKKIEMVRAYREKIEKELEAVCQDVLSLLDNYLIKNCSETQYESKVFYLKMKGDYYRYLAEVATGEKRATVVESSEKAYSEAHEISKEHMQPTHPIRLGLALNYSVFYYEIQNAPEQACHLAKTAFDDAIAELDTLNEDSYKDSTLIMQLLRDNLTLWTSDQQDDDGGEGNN
test.summary: differential scanning fluorimetry; d14-3-3γ titrated with peptide from a 0.21 mM stock; SYPRO Orange; 20 to 95°C at 2°C/min; shift of Tm fitted to equation 1; legend: 10 µM subunit in 10 mM Na-Hepes, pH 7.4, 150 mM NaCl
protocol.conditions: both partners purified
pKd: −log10 of the molar value. Where no end group is shown, it is not given here. [ ]: non-standard residue; d: D form. pS = N[C@@H](COP(=O)(O)O)C(=O)O
measured.attribute: pKd

Give the measured pKd for MPTPDATTPQAKGFRRAV[pS]ELDAKQAEAIMSPRFIGRRQSLIE (also called phosphopeptide; source: synthetic peptide (CPC Scientific), approx. 90% purity) [THp-(1-43), Ser19-phosphorylated N-terminal peptide of human tyrosine hydroxylase isoform 1] ~6.72
